molecular target: Delta-type opioid receptor (Homo sapiens); test: Displacement of [3H]DPDPE from human delta opioid receptor expressed in HN9.10 cells
Sequence (P41143 whole entry): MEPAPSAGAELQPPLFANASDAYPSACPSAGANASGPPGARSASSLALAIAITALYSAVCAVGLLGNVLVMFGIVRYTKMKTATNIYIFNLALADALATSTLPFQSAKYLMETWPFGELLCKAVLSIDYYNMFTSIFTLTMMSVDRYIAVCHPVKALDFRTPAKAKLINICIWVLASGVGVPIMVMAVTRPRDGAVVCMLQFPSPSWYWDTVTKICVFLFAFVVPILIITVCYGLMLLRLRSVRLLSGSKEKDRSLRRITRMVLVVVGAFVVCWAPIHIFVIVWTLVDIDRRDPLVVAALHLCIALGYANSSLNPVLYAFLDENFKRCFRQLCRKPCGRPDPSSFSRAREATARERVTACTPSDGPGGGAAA
pIC50: −log10 of the molar value. Where a SMILES comes first, the peptide text is derived from it. [ ]: non-standard residue; d: D form. NMeNle = CCCC[C@H](NC)C(=O)O
Label fulfilled when pIC50 >= 7; otherwise not fulfilled.

{"columns": ["compound", "group label"],
 "data": [
  ["CCCC[C@H](NC(=O)[C@@H](Cc1c[nH]c2ccccc12)NC(=O)CNC(=O)[C@@H](C)NC(=O)[C@@H](N)Cc1ccc(O)cc1)C(=O)N[C@@H](CC(=O)O)C(=O)N[C@@H](Cc1ccccc1)C(N)=O", "not fulfilled"],
  ["CCCC[C@@H](C(=O)N[C@@H](CC(=O)O)C(=O)N[C@@H](Cc1ccccc1)C(N)=O)N(C)C(=O)[C@@H](Cc1c[nH]c2ccccc12)NC(=O)CNC(=O)[C@@H](Cc1ccccc1)NC(=O)[C@@H](N)Cc1ccc(O)cc1", "fulfilled"],
  ["CCCC[C@@H](C(=O)N[C@@H](CC(=O)O)C(=O)N[C@@H](Cc1ccccc1)C(N)=O)N(C)C(=O)[C@H](Cc1c[nH]c2ccccc12)NC(=O)CNC(=O)CNC(=O)[C@@H](N)Cc1ccc(O)cc1 (H-YGGW[NMeNle]DF-NH2)", "not fulfilled"],
  ["CCCC[C@H](NC(=O)[C@H](Cc1c[nH]c2ccccc12)NC(=O)CNC(=O)[C@@H](Cc1ccccc1)NC(=O)[C@@H](N)Cc1ccc(O)cc1)C(=O)N[C@@H](CC(=O)O)C(=O)N[C@@H](Cc1ccccc1)C(N)=O", "fulfilled"],
  ["CCCC[C@@H](C(=O)N[C@@H](CC(=O)O)C(=O)N[C@@H](Cc1ccccc1)C(N)=O)N(C)C(=O)[C@H](Cc1c[nH]c2ccccc12)NC(=O)CNC(=O)[C@@H]1CCCN1C(=O)[C@@H](N)Cc1ccc(O)cc1", "not fulfilled"],
  ["CCCC[C@H](NC(=O)[C@@H](Cc1c[nH]c2ccccc12)NC(=O)CNC(=O)[C@@H](CCCC)NC(=O)[C@@H](N)Cc1ccc(O)cc1)C(=O)N[C@@H](CC(=O)O)C(=O)N[C@@H](Cc1ccccc1)C(N)=O", "fulfilled"],
  ["CCCC[C@@H](C(=O)N[C@@H](CC(=O)O)C(=O)N[C@@H](Cc1ccccc1)C(N)=O)N(C)C(=O)[C@H](Cc1c[nH]c2ccccc12)NC(=O)CNC(=O)[C@H]1CCCN1C(=O)[C@@H](N)Cc1ccc(O)cc1", "not fulfilled"],
  ["CCCC[C@@H](C(=O)N[C@@H](CC(=O)O)C(=O)N[C@@H](Cc1ccccc1)C(N)=O)N(C)C(=O)[C@H](Cc1c[nH]c2ccccc12)NC(=O)CNC(=O)[C@@H](Cc1ccccc1)NC(=O)[C@@H](N)Cc1ccc(O)cc1", "fulfilled"],
  ["CCCC[C@@H](C(=O)N[C@@H](CC(=O)O)C(=O)N[C@@H](Cc1ccccc1)C(N)=O)N(C)C(=O)[C@@H](Cc1c[nH]c2ccccc12)NC(=O)CNC(=O)[C@@H](C)NC(=O)[C@@H](N)Cc1ccc(O)cc1", "fulfilled"]
]}

----------
biological target: Mu-type opioid receptor (Rattus norvegicus) (UniProt P33535); assay: Activity against [35S]GTP-gamma-S binding to rat mu opioid receptor expressed in HN9.10 cells; format: functional, cell-based
Sequence (P33535 whole entry): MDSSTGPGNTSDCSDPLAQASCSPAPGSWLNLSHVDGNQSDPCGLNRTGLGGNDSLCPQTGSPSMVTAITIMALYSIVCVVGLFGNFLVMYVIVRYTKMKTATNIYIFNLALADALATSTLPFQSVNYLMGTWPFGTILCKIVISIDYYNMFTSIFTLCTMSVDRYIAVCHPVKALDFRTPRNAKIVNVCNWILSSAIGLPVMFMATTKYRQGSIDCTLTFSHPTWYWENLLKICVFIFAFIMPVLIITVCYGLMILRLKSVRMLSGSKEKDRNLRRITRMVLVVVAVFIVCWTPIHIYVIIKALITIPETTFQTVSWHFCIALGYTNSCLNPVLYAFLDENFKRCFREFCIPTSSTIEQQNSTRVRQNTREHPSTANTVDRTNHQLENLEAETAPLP
Emax listing for selected molecules.

{"columns": ["smiles entry", "Emax [%]"],
 "data": [
  ["CCCC[C@@H](NC(=O)[C@@H](N)Cc1ccc(O)cc1)C(=O)NCC(=O)N[C@@H](Cc1c[nH]c2ccccc12)C(=O)N(C)[C@@H](CCCC)C(=O)N[C@@H](CC(=O)O)C(=O)N[C@@H](Cc1ccccc1)C(N)=O", 70],
  ["CCCC[C@H](NC(=O)[C@@H](Cc1c[nH]c2ccccc12)NC(=O)CNC(=O)[C@@H](C)NC(=O)[C@@H](N)Cc1ccc(O)cc1)C(=O)N[C@@H](CC(=O)O)C(=O)N[C@@H](Cc1ccccc1)C(N)=O", 110],
  ["CCCC[C@H](NC(=O)[C@H](Cc1c[nH]c2ccccc12)NC(=O)CNC(=O)[C@@H](CCCC)NC(=O)[C@@H](N)Cc1ccc(O)cc1)C(=O)N[C@@H](CC(=O)O)C(=O)N[C@@H](Cc1ccccc1)C(N)=O", 88]
]}

----------
EC50 listing for selected compounds.
biological target: Mu-type opioid receptor (Rattus norvegicus); assay: Activity against [35S]GTP-gamma-S binding to rat mu opioid receptor expressed in HN9.10 cells
Sequence (P33535 whole entry): as above
Where a SMILES comes first, the peptide text is derived from it. [ ]: non-standard residue; d: D form. NMeNle = CCCC[C@H](NC)C(=O)O

{"columns": ["compound", "units symbol", "EC50"],
 "data": [
  ["CCCC[C@@H](C(=O)N[C@@H](CC(=O)O)C(=O)N[C@@H](Cc1ccccc1)C(N)=O)N(C)C(=O)[C@H](Cc1c[nH]c2ccccc12)NC(=O)CNC(=O)CNC(=O)[C@@H](N)Cc1ccc(O)cc1 (H-YGGW[NMeNle]DF-NH2)", "nM", 2],
  ["CCCC[C@H](NC(=O)[C@H](Cc1c[nH]c2ccccc12)NC(=O)CNC(=O)[C@@H](CCCC)NC(=O)[C@@H](N)Cc1ccc(O)cc1)C(=O)N[C@@H](CC(=O)O)C(=O)N[C@@H](Cc1ccccc1)C(N)=O", "nM", 0.46]
]}

----------
molecular target: Delta-type opioid receptor (Homo sapiens); test: Displacement of [3H]DPDPE from human delta opioid receptor expressed in HN9.10 cells
pKi: −log10 of the molar value. Where a SMILES comes first, the peptide text is derived from it. [ ]: non-standard residue; d: D form. NMeNle = CCCC[C@H](NC)C(=O)O

{"columns": ["compound", "pKi"],
 "data": [
  ["CCCC[C@H](NC(=O)[C@@H](Cc1c[nH]c2ccccc12)NC(=O)CNC(=O)[C@@H](C)NC(=O)[C@@H](N)Cc1ccc(O)cc1)C(=O)N[C@@H](CC(=O)O)C(=O)N[C@@H](Cc1ccccc1)C(N)=O", 6.07],
  ["CCCC[C@H](NC(=O)[C@H](Cc1c[nH]c2ccccc12)NC(=O)CNC(=O)[C@@H](C)NC(=O)[C@@H](N)Cc1ccc(O)cc1)C(=O)N[C@@H](CC(=O)O)C(=O)N[C@@H](Cc1ccccc1)C(N)=O", 9.66],
  ["CCCC[C@@H](C(=O)N[C@@H](CC(=O)O)C(=O)N[C@@H](Cc1ccccc1)C(N)=O)N(C)C(=O)[C@H](Cc1c[nH]c2ccccc12)NC(=O)CNC(=O)CNC(=O)[C@@H](N)Cc1ccc(O)cc1 (H-YGGW[NMeNle]DF-NH2)", 7.07],
  ["CCCC[C@@H](C(=O)N[C@@H](CC(=O)O)C(=O)N[C@@H](Cc1ccccc1)C(N)=O)N(C)C(=O)[C@@H](Cc1c[nH]c2ccccc12)NC(=O)CNC(=O)[C@@H](C)NC(=O)[C@@H](N)Cc1ccc(O)cc1", 8.82],
  ["CCCC[C@@H](C(=O)N[C@@H](CC(=O)O)C(=O)N[C@@H](Cc1ccccc1)C(N)=O)N(C)C(=O)[C@H](Cc1c[nH]c2ccccc12)NC(=O)CNC(=O)[C@@H](Cc1ccccc1)NC(=O)[C@@H](N)Cc1ccc(O)cc1", 9.00],
  ["CCCC[C@H](NC(=O)[C@@H](Cc1c[nH]c2ccccc12)NC(=O)CNC(=O)[C@@H](CCCC)NC(=O)[C@@H](N)Cc1ccc(O)cc1)C(=O)N[C@@H](CC(=O)O)C(=O)N[C@@H](Cc1ccccc1)C(N)=O", 7.70],
  ["CCCC[C@H](NC(=O)[C@@H](Cc1c[nH]c2ccccc12)NC(=O)CNC(=O)[C@@H](Cc1ccccc1)NC(=O)[C@@H](N)Cc1ccc(O)cc1)C(=O)N[C@@H](CC(=O)O)C(=O)N[C@@H](Cc1ccccc1)C(N)=O", 6.77],
  ["CCCC[C@H](NC(=O)[C@H](Cc1c[nH]c2ccccc12)NC(=O)CNC(=O)[C@@H](CCCC)NC(=O)[C@@H](N)Cc1ccc(O)cc1)C(=O)N[C@@H](CC(=O)O)C(=O)N[C@@H](Cc1ccccc1)C(N)=O", 8.59],
  ["CCCC[C@@H](C(=O)N[C@@H](CC(=O)O)C(=O)N[C@@H](Cc1ccccc1)C(N)=O)N(C)C(=O)[C@H](Cc1c[nH]c2ccccc12)NC(=O)CNC(=O)[C@@H](C)NC(=O)[C@@H](N)Cc1ccc(O)cc1", 8.66]
]}

----------
target: Mu-type opioid receptor (Rattus norvegicus); assay: Activity against [35S]GTP-gamma-S binding to rat mu opioid receptor expressed in HN9.10 cells; type: functional, cell-based
measure: EC50 (nM)

{"columns": ["smiles entry", "measure", "numeric value"],
 "data": [
  ["CCCC[C@@H](C(=O)N[C@@H](CC(=O)O)C(=O)N[C@@H](Cc1ccccc1)C(N)=O)N(C)C(=O)[C@H](Cc1c[nH]c2ccccc12)NC(=O)CNC(=O)[C@@H](Cc1ccccc1)NC(=O)[C@@H](N)Cc1ccc(O)cc1", "EC50", 22],
  ["CCCC[C@H](NC(=O)[C@@H](Cc1c[nH]c2ccccc12)NC(=O)CNC(=O)[C@@H](C)NC(=O)[C@@H](N)Cc1ccc(O)cc1)C(=O)N[C@@H](CC(=O)O)C(=O)N[C@@H](Cc1ccccc1)C(N)=O", "EC50", 350],
  ["CCCC[C@@H](C(=O)N[C@@H](CC(=O)O)C(=O)N[C@@H](Cc1ccccc1)C(N)=O)N(C)C(=O)[C@H](Cc1c[nH]c2ccccc12)NC(=O)CNC(=O)[C@@H](Cc1ccccc1)NC(=O)[C@H](Cc1ccc(O)cc1)NC(=O)[C@@H](N)CC(=O)O", "EC50", 81],
  ["CCCC[C@H](NC(=O)[C@H](Cc1c[nH]c2ccccc12)NC(=O)CNC(=O)[C@@H](Cc1ccccc1)NC(=O)[C@@H](N)Cc1ccc(O)cc1)C(=O)N[C@@H](CC(=O)O)C(=O)N[C@@H](Cc1ccccc1)C(N)=O", "EC50", 1.4]
]}
